Reference for the values: patent US20090280138A1

biological target: T1, MHC class I molecule B*0702 (biotin (bound via biotin to streptavidin-coated plates)); test: iTopia affinity assay (ED50), peptide titration on plate-bound MHC
T1 construct: Methods name B*0702 as the allele used; also called B7; HLA-B7
Reported pEC50 values for a set of binders
Entry type: numeric. Quantity: pEC50, the -log10 of concentration in molar units.

-- ask Provide pEC50 value for the following binder: RLRLARLAL [5T4 9 mer peptide 8 (RLRLARLAL)]
-- reply 7.70
